target.system: SARS-CoV-2 spike receptor binding domain (RBD) (SARS-CoV-2 Wuhan-Hu-1 (QHD43416), UniProt P0DTC2)
test.summary: cell-based or functional assay
recorded.metric: NT50, plaque reduction neutralization test (PRNT), SARS-CoV-2 on Vero E6 cells (µg/mL)
Write the value in µg/mL as a bare number.

Report NT50, plaque reduction neutralization test (PRNT), SARS-CoV-2 on Vero E6 cells for MD62 (scFv, V domains shown) VH: EVQLVQSGGGLIQPGGSLRLSCAASGVTVSSNYMTWVRQAPGKGLEWVSLIYSGGSTYYADSVKGRFTISRDNSKNTLYLQMNSLRAEDTAVYYCARDLQYYGMDVWGQGTMVTVSS VL: AIRMTQSPSSVSASVGDRVTITCRASQDIGSWLGWYQQKPGKAPKLLIYAASSLAGGVPSRFSGSGSGTDFTLTISSLQPEDFATYYCQQANSFPLTFGGGTKLEIK 1.6

Reference for the values: paper doi:10.1101/2020.05.20.106609
